Data origin: ChEMBL document CHEMBL5131391

system: SF-295; experiment: Antiproliferative activity against human SF-295 cells assessed as growth inhibition at 10 uM measured after 48 hrs by NCI protocol based SRB assay relative to control; type: functional; settings: read-out: GI
observationType: inhibition of growth at 10 µM (%)
Use % as the unit, but write only the number.

Solved cases (3 shown):
smilesRepr	inhibition of growth at 10 µM, %
Cc1ccc(-c2nc3c(c(-c4ccccc4)nn3-c3ccccc3)c(-c3ccc(O)cc3)c2C#N)cc1	120
N#Cc1c(-c2ccccc2)nc2c(c(-c3ccccc3)nn2-c2ccccc2)c1-c1ccc(O)cc1	143
N#Cc1c(-c2ccc(Cl)cc2)nc2c(c(-c3ccccc3)nn2-c2ccccc2)c1-c1ccc(O)cc1	99

Proceed to the following item.
# return recorded inhibition of growth at 10 µM for input N#Cc1c(-c2ccco2)nc2c(c(-c3ccccc3)nn2-c2ccccc2)c1-c1ccc(O)cc1 34

----------
tested on: SK-MEL-28; assay: Antiproliferative activity against human SK-MEL-28 cells assessed as growth inhibition at 10 uM measured after 48 hrs by NCI protocol based SRB assay relative to control; format: functional; details: read-out: GI
observationType: inhibition of growth at 10 µM (%)
Could you give me the number in %? Just the number is fine.

Recorded results for 3 compounds are shown here.
smilesRepr	inhibition of growth at 10 µM (%)
Cc1ccc(-c2nc3c(c(-c4ccccc4)nn3-c3ccccc3)c(-c3ccc(O)cc3)c2C#N)cc1	33
COc1cc(-c2c(C#N)c(-c3ccccc3)nc3c2c(-c2ccccc2)nn3-c2ccccc2)ccc1O	19
N#Cc1c(-c2ccc(Cl)cc2)nc2c(c(-c3ccccc3)nn2-c2ccccc2)c1-c1ccc(O)cc1	44

Give recorded inhibition of growth at 10 µM. N#Cc1c(-c2ccco2)nc2c(c(-c3ccccc3)nn2-c2ccccc2)c1-c1ccc(O)cc1 24

Supply reported inhibition of growth at 10 µM belonging to this compound: N#Cc1c(-c2ccccc2)nc2c(c(-c3ccccc3)nn2-c2ccccc2)c1-c1ccc(O)cc1 51

----------
system: MDA-MB-231; test: Antiproliferative activity against human MDA-MB-231 cells assessed as growth inhibition at 10 uM measured after 48 hrs by NCI protocol based SRB assay relative to control; format: functional; conditions: read-out: GI
observationType: inhibition of growth at 10 µM

smilesRepr	systemTested	valueObserved
COc1cc(-c2c(C#N)c(-c3ccco3)nc3c2c(-c2ccccc2)nn3-c2ccccc2)ccc1O	MDA-MB-231	17%
N#Cc1c(-c2ccco2)nc2c(c(-c3ccccc3)nn2-c2ccccc2)c1-c1ccc(O)cc1	MDA-MB-231	18%
Cc1ccc(-c2nc3c(c(-c4ccccc4)nn3-c3ccccc3)c(-c3ccc(O)cc3)c2C#N)cc1	MDA-MB-231	55%
COc1cc(-c2c(C#N)c(-c3ccccc3)nc3c2c(-c2ccccc2)nn3-c2ccccc2)ccc1O	MDA-MB-231	28%
N#Cc1c(-c2ccccc2)nc2c(c(-c3ccccc3)nn2-c2ccccc2)c1-c1ccc(O)cc1	MDA-MB-231	77%

Answer with inhibition of growth at 10 µM of N#Cc1c(-c2ccc(Cl)cc2)nc2c(c(-c3ccccc3)nn2-c2ccccc2)c1-c1ccc(O)cc1 measured for MDA-MB-231. 64%

----------
tested on: RPMI-8226; assay: Antiproliferative activity against human RPMI-8226 cells assessed as growth inhibition at 10 uM measured after 48 hrs by NCI protocol based SRB assay relative to control; assay type: functional; conditions: read-out: GI
Item-by-item account of inhibition of growth at 10 µM
Reply with just the number (in %).

Below are worked cases with known answers.
smilesRepr	inhibition of growth at 10 µM, %
COc1cc(-c2c(C#N)c(-c3ccco3)nc3c2c(-c2ccccc2)nn3-c2ccccc2)ccc1O	21
Cc1ccc(-c2nc3c(c(-c4ccccc4)nn3-c3ccccc3)c(-c3ccc(O)cc3)c2C#N)cc1	79
COc1cc(-c2c(C#N)c(-c3ccccc3)nc3c2c(-c2ccccc2)nn3-c2ccccc2)ccc1O	40
N#Cc1c(-c2ccco2)nc2c(c(-c3ccccc3)nn2-c2ccccc2)c1-c1ccc(O)cc1	45

Recall and state the measured inhibition of growth at 10 µM for N#Cc1c(-c2ccc(Cl)cc2)nc2c(c(-c3ccccc3)nn2-c2ccccc2)c1-c1ccc(O)cc1 . 83

Provide measured inhibition of growth at 10 µM value, entry: N#Cc1c(-c2ccccc2)nc2c(c(-c3ccccc3)nn2-c2ccccc2)c1-c1ccc(O)cc1 87
